The origin of these recorded values is ChEMBL document CHEMBL5291721.

// each record: one item and its AC50 for Growth hormone secretagogue receptor type 1 (Homo sapiens, UniProt Q92847)
Measured Attribute: AC50

- CNC(=C[N+](=O)[O-])NCCSCc1csc(CN(C)C)n1: > 10 µM
- CC(Cc1cccc(C(F)(F)F)c1)NCCOC(=O)c1ccccc1 (centres undefined): 28 µM
- O=C(O)COCCN1CCN(C(c2ccccc2)c2ccc(Cl)cc2)CC1 (centres undefined): > 30 µM
- COc1ccccc1OC1(C)OC(=O)c2ccccc2O1 (centres undefined): > 30 µM
- CC[C@H](C)C(=O)O[C@H]1C[C@@H](C)C=C2C=C[C@H](C)[C@H](CC[C@@H]3C[C@@H](O)CC(=O)O3)[C@H]21: > 30 µM
- CC(CN(C)C)C(C)(O)Cc1ccc(Cl)cc1 (centres undefined): > 30 µM
- CCCc1nc2c(C)cc(-c3nc4ccccc4n3C)cc2n1Cc1ccc(-c2ccccc2C(=O)O)cc1: > 30 µM
- CCc1nc(N)nc(N)c1-c1ccc(Cl)cc1: > 10 µM
- CCOc1nc2cccc(C(=O)O)c2n1Cc1ccc(-c2ccccc2-c2nnn[nH]2)cc1: > 30 µM

###

Study System: 3',5'-cyclic-AMP phosphodiesterase 4D (Homo sapiens, UniProt Q08499); further: assay procedure not described here
Sequence (Q08499 whole entry): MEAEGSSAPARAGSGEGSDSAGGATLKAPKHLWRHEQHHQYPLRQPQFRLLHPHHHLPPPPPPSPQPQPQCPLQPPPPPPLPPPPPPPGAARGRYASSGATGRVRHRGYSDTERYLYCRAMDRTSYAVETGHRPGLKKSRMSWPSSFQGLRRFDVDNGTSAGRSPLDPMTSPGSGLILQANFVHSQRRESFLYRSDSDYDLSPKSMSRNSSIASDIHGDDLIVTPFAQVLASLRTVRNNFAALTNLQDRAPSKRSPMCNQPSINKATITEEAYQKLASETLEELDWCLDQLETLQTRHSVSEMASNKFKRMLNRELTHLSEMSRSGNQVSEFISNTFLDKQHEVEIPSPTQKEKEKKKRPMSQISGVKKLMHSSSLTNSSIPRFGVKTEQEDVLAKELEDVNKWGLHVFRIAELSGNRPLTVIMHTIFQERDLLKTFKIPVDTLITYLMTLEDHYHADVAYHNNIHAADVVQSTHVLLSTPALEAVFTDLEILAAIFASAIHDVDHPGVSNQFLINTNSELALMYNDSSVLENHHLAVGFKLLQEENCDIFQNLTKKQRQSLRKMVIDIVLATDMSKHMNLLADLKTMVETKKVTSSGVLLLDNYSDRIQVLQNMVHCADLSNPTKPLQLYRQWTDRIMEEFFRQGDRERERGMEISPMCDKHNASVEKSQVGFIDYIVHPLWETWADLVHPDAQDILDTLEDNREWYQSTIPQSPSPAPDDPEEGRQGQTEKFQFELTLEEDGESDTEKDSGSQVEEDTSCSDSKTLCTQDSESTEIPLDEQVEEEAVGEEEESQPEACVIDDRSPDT
Format: functional
Each entry below carries its recorded AC50.
Measured Attribute: AC50

• O=C(O)c1ccc(NC(=O)[C@H](Cc2ccc(O)cc2)NC(=O)c2ccccc2)cc1 [BENTIROMIDE] = > 30 µM
• COc1cc(C(=O)NS(=O)(=O)c2ccccc2C)ccc1Cc1cn(C)c2ccc(NC(=O)OC3CCCC3)cc12 = 5.4 µM
• C[C@]12CCC(=O)C[C@@H]1CC[C@@H]1[C@@H]2CC[C@]2(C)[C@@H](O)CC[C@@H]12 = > 30 µM
• COc1ccc2cc(CCC(C)=O)ccc2c1 = > 30 µM
• CCOC(=O)c1ccc(N)cc1 = > 30 µM
• COc1ccc(C2C(=O)c3ccccc3C2=O)cc1 = > 30 µM
• C/C=C(/C(=C/C)c1ccc(O)cc1)c1ccc(O)cc1 = > 30 µM
• C[C@]12C/C(=C/O)C(=O)C[C@@H]1CC[C@@H]1[C@@H]2CC[C@@]2(C)[C@H]1CC[C@]2(C)O = > 30 µM
• O=C1c2cccc3c2[C@H](CCC3)CN1[C@@H]1CN2CCC1CC2 = > 30 µM
• CCCNC(=O)NS(=O)(=O)c1ccc(Cl)cc1 [CHLORPROPAMIDE] = > 30 µM
• CN1CCN=C(c2ccccc2)c2cc(Cl)ccc21 = 5.2 µM
• C[N+](C)(C)CCOP(=O)(O)OP(=O)([O-])OC[C@H]1O[C@@H](n2ccc(N)nc2=O)[C@H](O)[C@@H]1O = > 30 µM
• CCC(NC(C)C)C(O)c1ccc(O)c2[nH]c(=O)ccc12 (stereo not given) = > 30 µM
• CC(C(=O)O)c1ccc2c(c1)CC(=O)c1ccccc1S2 (stereo not given) = 24 µM
• O=C(O)CCNC(=O)c1ccc(/N=N/c2ccc(O)c(C(=O)O)c2)cc1 [BALSALAZIDE] = > 30 µM
• C[C@]12C=CC(=O)C=C1CC[C@@H]1[C@@H]2CC[C@]2(C)OC(=O)CC[C@@H]12 = > 30 µM
• CC1(C)S[C@@H]2[C@H](NC(=O)C(C(=O)O)c3ccccc3)C(=O)N2[C@H]1C(=O)O (stereo not given in full) = > 30 µM
• Cn1cc(C(=O)[C@@H]2CCc3nc[nH]c3C2)c2ccccc21 = > 30 µM
• COc1cc(C(C)=O)ccc1OCCCN1CCC(c2noc3cc(F)ccc23)CC1 = > 30 µM
• CN[C@@H](C)[C@@H](O)c1ccccc1 = > 30 µM
• CO[C@H]1C[C@H](O[C@H]2CC[C@@]3(C)[C@H](CC[C@@H]4[C@@H]3CC[C@]3(C)[C@@H](C5=CC(=O)OC5)[C@@H](OC(C)=O)C[C@]43O)C2)O[C@@H](C)[C@@H]1O = > 30 µM
• CCC(=O)O[C@]1(C(=O)CCl)[C@@H](C)C[C@H]2[C@@H]3CCC4=CC(=O)C=C[C@]4(C)[C@@]3(F)[C@@H](O)C[C@@]21C [CLOBETASOL PROPIONATE] = > 30 µM
• CCCN1CC(NS(=O)(=O)N(CC)CC)CC2Cc3c(O)cccc3CC21 (stereo not given) [QUINAGOLIDE] = > 30 µM
• CN(C)Cc1nnc2n1-c1ccc(Cl)cc1C(c1ccccc1)=NC2 = > 30 µM
• O=C(O)COCCN1CCN(C(c2ccccc2)c2ccc(Cl)cc2)CC1 (stereo not given) = > 30 µM
• CC(CN(C)C)C(C)(O)Cc1ccc(Cl)cc1 (stereo not given) = > 30 µM
• N#Cc1ccc(Oc2ccc3c(c2)COB3O)cc1 = 0.8 µM
• CCOC(=O)c1c(CSc2ccccc2)n(C)c2cc(Br)c(O)c(CN(C)C)c12 = 5.6 µM
• O=c1[nH]c2ccccc2n1CCCN1CCN(C(c2ccccc2)c2ccccc2)CC1 [OXATOMIDE] = > 30 µM
• Cc1nnc(SCC2=C(C(=O)O)N3C(=O)[C@@H](NC(=O)Cn4cnnn4)[C@H]3SC2)s1 = > 300 µM
• O=C(/C=C/c1cccc(S(=O)(=O)Nc2ccccc2)c1)NO = 7.1 µM
• CCN1CC(CCN2CCOCC2)C(c2ccccc2)(c2ccccc2)C1=O (stereo not given) = > 30 µM
• Cc1ccccc1-n1c(CF)nc2ccc(N)cc2c1=O = 13 µM
• CC(c1cc2ccccc2s1)N(O)C(N)=O (stereo not given) = > 30 µM
• Cn1c(=O)c2c(ncn2CCOC(=O)C(C)(C)Oc2ccc(Cl)cc2)n(C)c1=O [THEOFIBRATE] = > 30 µM
